# System: SNB-19 CNS
# RUN DESCRIPTION: NCI tumour cell line growth inhibition, 48 h
Listing of recorded TGI by entry.
ENDPOINT NAME: TGI

- O=C(O)CCCCn1ccc(=O)[nH]c1=O: > 100 µM
- Cn1cnc(N2CCCC2)c(C#N)c1=S: > 100 µM
- COc1cc2c3c(n(CCCN(CCCN(CCCn4c5c(c6ccccc6c4=O)C(=O)c4ccccc4-5)C(=O)OC(C)(C)C)C(=O)OC(C)(C)C)c(=O)c2cc1OC)-c1cc2c(cc1C3=O)OCO2: > 100 µM
- O=c1cc(-c2ccccc2)[nH]c2ncccc12: > 100 µM
- CN1CCN(Cc2ccc(NC(=O)c3cncc(C#Cc4c(N)ncc5ccc(C#N)cc45)c3)cc2C(F)(F)F)CC1: 1.79 µM
- CCc1ccccc1NC(=O)C(C#N)C1=C(Cl)C(=O)c2ccccc2C1=O (stereo not given): 72.3 µM
- COc1ccc2c(c1)[n+]([O-])c(-c1cccc(Cl)c1)c(N)[n+]2[O-]: > 100 µM
- [O-]/N=[N+](/[O-])C1CCCCC1=[N+]1CCOCC1 (stereo not given): > 100 µM
- COc1cc(C2S/C(=C/c3ccccc3)C(=O)N2Cc2ccccc2)cc(OC)c1OC (stereo not given): > 100 µM
- CN1CC=C(c2cc(NC(=O)Nc3ccc(Oc4ccnc(NC(=O)C5CC5)c4)c(F)c3)cc(C(F)(F)F)c2)CC1: 1.48 µM

====

The following compounds are shown together with reported GI50 values.
# Tested on: RPMI-8226 leukemia
# RUN DESCRIPTION: NCI tumour cell line growth inhibition, 48 h
ENDPOINT NAME: GI50

- C[C@@H](N)COc1ccc(-c2cnc3ccc(N[C@H](C)c4cccc(F)c4)nn23)cc1: 1.81 µM
- COc1cc2c3c(n(CCCN(CCCN(CCCn4c5c(c6ccccc6c4=O)C(=O)c4ccccc4-5)C(=O)OC(C)(C)C)C(=O)OC(C)(C)C)c(=O)c2cc1OC)-c1cc2c(cc1C3=O)OCO2: > 100 µM
- CS(=O)(=O)N1CCC(n2c(=O)c(Oc3ccc(F)cc3F)cc3cnc(NC4CCOCC4)nc32)CC1: > 17.5 µM
- Cc1ccc([P+](Cc2ccccc2)(c2ccccc2)c2ccccc2)cc1: 0.6 µM

====

# Test system: EKVX NSCLC
# RUN DESCRIPTION: NCI tumour cell line growth inhibition, 48 h
ENDPOINT NAME: TGI (µM)

• NC(=O)c1cccc2c(N[C@H](CN3CCC3)c3ccc(Cl)c(C(F)(F)F)c3)ncnc12 = 10.3
• O=C1CC(/C=C/c2ccco2)=C(O)C1=O = 37.6
• N#Cc1c(N)oc(-c2ccc([N+](=O)[O-])cc2)c1C#N = 59.6
• CCc1cc(C)cc2[n+]1CC=C2 = 87.9
• C[C@@]1(CCCCCCCCCCc2ccccc2)C[C@@]2(C)OC(=O)C[C@H]2OO1 = 7.2
• CC#C[C@]1(O)CCC2[C@@H]3CCC4=CC(=O)CCC4=C3[C@@H](c3ccc(N(C)C)cc3)C[C@@]21C (some centres not stated) = 53
• O=C1Nc2ccccc2/C1=C\c1c(-c2ccccc2)nc2sccn12 = 32.6
• CC[C@@]1(O)C[C@H](OC2CC(N(C)C)C(O)C(C)O2)c2c(cc3c(c2O)C(=O)c2c(O)ccc(O)c2C3=O)[C@H]1C(=O)OC (some centres not stated) = 0.526
• CCCCCCC1N=C(N)N=C(N)N1c1cccc(Cl)c1 (configuration not stated) = 19.3
• COc1ccc(Nc2nc3cc(C(F)(F)F)ccc3nc2-c2ccccc2)cc1OC = 71.2

These measurements were taken from PubChem BioAssay (NCI).
